Tested on: 485368-065-R3-J5-PDC spheroids with HUVEC/MSC, viability;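 further: spheroids exposed to agents for seven days before readout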
Assay: Anticancer human tumor 485368-065-R3-J5-PDC patient-derived pancreatic carcinoma cell line growth inhibition [RAS]
Conditions: second compound 0.000949 µM; first compound 0.0316 µM; hits give low values
Record form. Attribute: viability, T/C. Fill in for each entry.
One number for each entry, in %.

Worked cases, answers included:
Query string: Look up viability, T/C for this compound: CC(C)n1nc(-c2ccc3oc(N)nc3c2)c2c(N)ncnc21 + CCn1c(-c2cccnc2C(C)OC)c2c3cc(ccc31)N1CCOC(CC(NC(=O)C(C(C)C)N(C)C(=O)C3(F)CCN(C(=O)C#CC(C)(C)N(C)C)CC3)C(=O)N3CCCC(N3)C(=O)OCC(C)(C)C2)C1
Result string: 38.8

Query string: Reported viability, T/C for CC(C)NCC(C(=O)N1CCN(c2ncnc3c2C(C)CC3O)CC1)c1ccc(Cl)cc1 (centres undefined) + CCn1c(-c2cccnc2C(C)OC)c2c3cc(ccc31)N1CCOC(CC(NC(=O)C(C(C)C)N(C)C(=O)C3(F)CCN(C(=O)C#CC(C)(C)N(C)C)CC3)C(=O)N3CCCC(N3)C(=O)OCC(C)(C)C2)C1 : what is it?
Result string: 102

Query string: // query viability, T/C value for entry Nc1ccn(C2OC(CO)C(O)C2(F)F)c(=O)n1 (centres undefined) + CCn1c(-c2cccnc2C(C)OC)c2c3cc(ccc31)N1CCOC(CC(NC(=O)C(C(C)C)N(C)C(=O)C3(F)CCN(C(=O)C#CC(C)(C)N(C)C)CC3)C(=O)N3CCCC(N3)C(=O)OCC(C)(C)C2)C1
Result string: 11.6

We next turn to a different compound, shown below.
Query string: Reported viability, T/C, compound CC(Nc1ccc2c(c1)OCCn1cc(N3C(=O)OCC3C(F)F)nc1-2)C(N)=O (centres undefined) + CCn1c(-c2cccnc2C(C)OC)c2c3cc(ccc31)N1CCOC(CC(NC(=O)C(C(C)C)N(C)C(=O)C3(F)CCN(C(=O)C#CC(C)(C)N(C)C)CC3)C(=O)N3CCCC(N3)C(=O)OCC(C)(C)C2)C1 : ____
Result string: 106
